Listed next: entries and their corresponding IC50.
# System: Normal Cells
# test.description: AlamarBlue cell proliferation (cytotoxicity) assay, mean over normal cells
# Format: cell-based, human
# condition.summary: mean of CCd18co and Det551 (µM)
Express the result in µM but write the number alone.

Quick check: IC50 of COC(=O)C(C)NP(=O)(OCC1OC(n2cc(C(F)(F)F)c(=O)[nH]c2=O)CC1O)Oc1ccccc1 (stereo not drawn) ? 139

// same read-out, input: COC(=O)[C@H](C)NP(=O)(OC[C@H]1O[C@@H](n2cc(/C=C/Cl)c(=O)[nH]c2=O)C[C@@H]1O)Oc1ccccc1 (stereo partly drawn) 570

// repeat for COC(=O)C(C)NP(=O)(OCC1OC(n2ccc(=O)[nH]c2=O)CC1O)Oc1ccccc1 (stereo not drawn) and report 378

----------
# Tested on: CCd18co
# test.description: Crystal violet cell proliferation inhibition assay
# Format: cell-based
# condition.summary: Homo sapiens, CCD-18Co, 72 hours incubation, normal colon epithelium cells
# Description: Compound concentrations from 1 µM to 3000 µM were tested. Numbering in Tables 5 and 6 refer to the structures, shown infra. […] MCF7-TDX was derived from MCF7 breast tumor cells via selection in cell culture in the presence of Tomudex, a direct inhibitor of TS. […] Similarly, H630R10 is a 5FU (fluoropyrimidine) resistant colon cancer epithelial cell line derived from H630 colon cancer cells. […]
attribute.measured: IC50 (µM)
Express your answer in µM, writing the number without its unit.

Would you mind telling me what IC50 value was observed for O=c1[nH]c(=O)n([C@H]2C[C@H](O)[C@@H](CO)O2)cc1/C=C/Br [BVdU, (E)-5-(2-Bromovinyl)-2'-deoxyuridine, reference compound] ? 1000
